System: AR mRNA
methodNotes: Dose-dependent antisense inhibition of human AR in HuVEC cells (electroporation, qRT-PCR RTS3559, IC50)
Type: cell-based
measurementParameters: Table 31; 187.5 nM, HuVEC, electroporation, approximately 16 hours
Oligonucleotides are written 5' to 3', each unit as a sugar letter and its base; * is a phosphorothioate linkage, no mark a phosphodiester; rarer units and linkages stand in square brackets, end groups in braces. Plain capitals give the bases only. k = constrained ethyl (cEt); [5mC] = 5-methylcytosine; d = 2'-deoxy (DNA)
Entries get a class label from measured percent inhibition of AR, 187.5 nM. See ranges: category 1 = under 40%, category 2 = from 40% up to 50%, category 3 = 50% and over

The following substances have reported results that may help.
Challenge: Categorize the following entry: 583746 (antisense kT*kG*k[5mC]*dG*d[5mC]*dT*d[5mC]*dG*d[5mC]*dG*dG*d[5mC]*d[5mC]*kT*k[5mC]*kT) [compound 583746]
Response given: category 2

Challenge: State the band of 583790 (antisense kG*kT*kT*dG*d[5mC]*dA*dT*dG*dG*dT*dG*d[5mC]*dT*kG*kG*k[5mC]) [compound 583790]
Response given: category 2

Challenge: Would you mind sorting 583821 (k[5mC]*kA*kG*dA*dA*dA*dT*dG*dG*dT*d[5mC]*dG*dA*kA*kG*kT) [compound 583821] into the appropriate category?
Response given: category 1

Challenge: Which bin should I file 549458 (kG*kT*kT*dG*dA*dT*dT*dT*dA*dA*dT*dG*dG*kT*kT*kG) [compound 549458] under?
Response given: category 3

Challenge: Lab note: which band did 583700 (antisense kG*kA*kA*dG*dA*dG*dT*dT*d[5mC]*dA*dA*d[5mC]*dA*kG*kG*k[5mC]) [compound 583700] land in?
Response given: category 1

Challenge: Which class is correct for the following substance? 583795 (antisense kT*kG*k[5mC]*dT*dG*dT*dT*dG*d[5mC]*dT*dG*dA*dA*kG*kG*kA) [compound 583795]
Response given: category 3

Challenge: Sort 549372 (kA*kA*kG*dT*dT*dG*dT*dA*dG*dT*dA*dG*dT*k[5mC]*kG*k[5mC]) [compound 549372] into one of the categories.
Response given: category 1

Challenge: Bin this entry: 583818 (antisense kT*kG*kG*dT*d[5mC]*dG*dA*dA*dG*dT*dG*d[5mC]*d[5mC]*k[5mC]*k[5mC]*k[5mC]) [compound 583818]
Response given: category 2

Next, consider the following substance.
Challenge: Into which bin does this substance go? 583799 (antisense kT*kG*k[5mC]*d[5mC]*dT*dT*d[5mC]*dG*dG*dA*dT*dA*d[5mC]*kT*kG*k[5mC]) [compound 583799]
Response given: category 3

Values compiled from patent USRE48461E1.
